Reference for the values: patent US20100081679A1

METHOD: logP determination via retention times, calibrated with unbranched alkan-2-ones
Assay type: physicochemical
CONDITION_SUMMARY: HPLC on reversed-phase C18, method *: 40° C.; mobile phase 0.1% aqueous formic acid and acetonitrile; linear gradient 10% to 95% acetonitrile
Marks after values point to notes of the source that are not given here.
MEASURED_ATTRIBUTE: logP

The cases that follow already have their logP on record.
[
  {
    "COMPOUND": "Fc1ccccc1Nc1ncc(Cl)c(NC2CC2)n1 [compound 275]",
    "logP": "2.09*"
  },
  {
    "COMPOUND": "O=C1CCCN1c1cc(Nc2ncc(Cl)c(NC3CC3)n2)c(Cl)cc1Cl [compound 298]",
    "logP": "2.59*"
  },
  {
    "COMPOUND": "Clc1cc(Cl)cc(Nc2ncc(Cl)c(NC3CC3)n2)c1 [compound 291]",
    "logP": "4.04*"
  },
  {
    "COMPOUND": "Clc1cnc(Nc2ccc(OC3CCCC3)cc2)nc1NC1CC1 [compound 299]",
    "logP": "2.48*"
  },
  {
    "COMPOUND": "CCC(=O)c1ccc(Nc2ncc(Br)c(NC3CC3)n2)cc1 [compound 356]",
    "logP": "2.68*"
  },
  {
    "COMPOUND": "CCOC(=O)c1cccc(Nc2ncc(Cl)c(NC3CC3)n2)c1 [compound 292]",
    "logP": "2.26*"
  },
  {
    "COMPOUND": "COc1ccccc1Nc1ncc(Cl)c(NC2CC2)n1 [compound 282]",
    "logP": "1.85*"
  },
  {
    "COMPOUND": "CS(=O)(=O)c1ccc(Nc2ncc(Br)c(NC3CC3)n2)cc1 [compound 345]",
    "logP": "1.9*"
  }
]

We now examine a further compound.
Query :: If you can, please state the reported logP value of CCOC(=O)C1(Nc2nc(Nc3cc(OC)c(OC)c(OC)c3)ncc2Cl)CC1 [compound 317] .
Result :: 2.01*

---

METHOD: logP determination via retention times, calibrated with unbranched alkan-2-ones
Assay type: physicochemical
CONDITION_SUMMARY: HPLC reversed-phase C 18, EEC Directive 79/831 Annex V.A8; method *: 40° C., 0.1% aqueous formic acid and acetonitrile, linear gradient 10% to 95% acetonitrile
Marks after values point to notes of the source that are not given here.
MEASURED_ATTRIBUTE: logP

Worked examples follow.
[
  {
    "COMPOUND": "COc1cccc(Nc2ncc(I)c(NC3CC3)n2)c1",
    "logP": "1.97*"
  },
  {
    "COMPOUND": "Brc1cnc(Nc2ccccc2)nc1NCCC1CC1",
    "logP": "2.18*"
  },
  {
    "COMPOUND": "ClC1(Cl)CC1CNc1nc(Nc2ccccc2)ncc1Br (centres unmarked)",
    "logP": "2.6*"
  },
  {
    "COMPOUND": "CC(=O)Nc1ccc(Nc2ncc(Cl)c(NC3CC3)n2)cc1O",
    "logP": "1*"
  }
]

Query :: State the recorded logP for this entry: COc1cc(CC#N)ccc1Nc1ncc(Br)c(NC2CC2)n1
Result :: 1.99*

Query :: Same thing, different compound: COc1cc(CC#N)ccc1Nc1ncc(Cl)c(NC2CC2)n1
Result :: 1.82*

---

Known logP of a selection of molecules
METHOD: logP determination via retention times, calibrated with unbranched alkan-2-ones
Assay type: physicochemical
CONDITION_SUMMARY: method **: HPLC reversed-phase C 18, 43° C., 0.1% aqueous phosphoric acid and acetonitrile, linear gradient 10% to 95% acetonitrile

Record excerpt, results attached:
[
  {
    "SMILES_INPUT": "COc1cc(Nc2ncc(Cl)c(NCC3CC3)n2)cc(OC)c1",
    "REPORTED_RESULT": "2.09**"
  },
  {
    "SMILES_INPUT": "CNS(=O)(=O)c1ccc(Nc2ncc(Cl)c(NC3CC3)n2)cc1",
    "REPORTED_RESULT": "1.71**"
  },
  {
    "SMILES_INPUT": "Clc1cccc(Nc2ncc(Cl)c(NCC3CC3)n2)c1",
    "REPORTED_RESULT": "2.7**"
  },
  {
    "SMILES_INPUT": "Cl.Fc1cnc(Nc2ccccc2)nc1NC1CC1",
    "REPORTED_RESULT": "1.45**"
  }
]

Query :: Recorded logP of C=CCNS(=O)(=O)c1ccc(Nc2ncc(Cl)c(NC3CC3)n2)cc1 , please.
Result :: 2.09**

---

METHOD: logP determination via retention times, calibrated with unbranched alkan-2-ones
Assay type: physicochemical
CONDITION_SUMMARY: method **: HPLC reversed-phase C 18, 43° C., 0.1% aqueous phosphoric acid and acetonitrile, linear gradient 10% to 95% acetonitrile
MEASURED_ATTRIBUTE: logP

[
  {
    "COMPOUND": "Clc1cnc(Nc2ccccc2)nc1NCC1CC1 [Example 10]",
    "MEASURED_ATTRIBUTE": "logP",
    "REPORTED_RESULT": "1.85**"
  },
  {
    "COMPOUND": "O=C1OCCN1c1ccc(Nc2ncc(C(F)(F)F)c(NC3CC3)n2)cc1 [compound 367]",
    "MEASURED_ATTRIBUTE": "logP",
    "REPORTED_RESULT": "2.04**"
  },
  {
    "COMPOUND": "CN(C)S(=O)(=O)c1ccc(Nc2ncc(Cl)c(NCC3CC3)n2)cc1 [compound 14]",
    "MEASURED_ATTRIBUTE": "logP",
    "REPORTED_RESULT": "2.36**"
  },
  {
    "COMPOUND": "CNS(=O)(=O)c1ccc(Nc2ncc(Cl)c(NCC3CC3)n2)cc1 [compound 20]",
    "MEASURED_ATTRIBUTE": "logP",
    "REPORTED_RESULT": "1.87**"
  },
  {
    "COMPOUND": "Cc1ccc(Nc2ncc(Cl)c(NC3CC3)n2)cc1S(=O)(=O)N(C)C [Example 47]",
    "MEASURED_ATTRIBUTE": "logP",
    "REPORTED_RESULT": "2.14**"
  }
]

Query :: What measured logP goes with N#Cc1cc(Nc2ncc(Cl)c(NC3CC3)n2)ccc1N1CCCC1 [compound 439] ?
Result :: 2.23**

Query :: # iterate: CN(C)S(=O)(=O)c1cccc(Nc2ncc(Cl)c(NCC3CC3)n2)c1 [compound 49]
Result :: 2.18**

Query :: Also, O=S(=O)(Nc1ccccc1)c1ccc(Nc2ncc(Cl)c(NC3CC3)n2)cc1 [compound 27] please.
Result :: 2.56**

Query :: Here is the next compound: CN(C)S(=O)(=O)c1cccc(Nc2ncc(Cl)c(NC3CC3)n2)c1 [Example 28]
Result :: 2.04**

---

METHOD: logP determination via retention times, calibrated with unbranched alkan-2-ones
Type: physicochemical
CONDITION_SUMMARY: method *: HPLC reversed-phase C 18, temperature 40° C.; mobile phase 0.1% aqueous formic acid and acetonitrile; linear gradient 10% to 95% acetonitrile
Reported values of logP for individual entries

Some compounds with recorded logP:
[
  {
    "SMILES_INPUT": "CS(=O)(=O)c1ccc(Nc2ncc(C(F)(F)F)c(NC3CC3)n2)cc1",
    "REPORTED_RESULT": "2.36*"
  },
  {
    "SMILES_INPUT": "O=C(Nc1ccc(Nc2ncc(F)c(NC3CC3)n2)cc1)C(F)(F)F",
    "REPORTED_RESULT": "1.58*"
  }
]

Query :: # input compound: CC(C)(C)C(=O)Cc1ccc(Nc2ncc(C(F)(F)F)c(NC3CC3)n2)cc1 ; wanted: its logP
Result :: 3.33*

Query :: Follow-up entry: COC(=O)Cc1cccc(Nc2ncc(C#N)c(NC3CC3)n2)c1
Result :: 2.39*

Query :: Then CC(C)(C)C(=O)Nc1ccc(Nc2ncc(C(F)(F)F)c(NC3CC3)n2)cc1 ?
Result :: 2.46*

---

METHOD: logP determination via retention times, calibrated with unbranched alkan-2-ones
Assay type: physicochemical
CONDITION_SUMMARY: HPLC on reversed-phase C18, method *: 40° C., 0.1% aqueous formic acid and acetonitrile, linear gradient 10% to 95% acetonitrile
Marks after values point to notes of the source that are not given here.
MEASURED_ATTRIBUTE: logP

Query :: What value of logP has been recorded for this entry: COC(=O)c1ccc(Nc2ncc(Br)c(NC3CC3)n2)cc1
Result :: 2.4*

Query :: Now try CN(C)Cc1cccc(Nc2ncc(Cl)c(NC3CC3)n2)c1 .
Result :: 0.79*

---

Entries and their measured logP follow.
METHOD: logP determination via retention times, calibrated with unbranched alkan-2-ones
Assay type: physicochemical
CONDITION_SUMMARY: method *: HPLC reversed-phase C18, 40° C., 0.1% aqueous formic acid and acetonitrile, linear gradient 10% to 95% acetonitrile

Please review the following examples before continuing.
[
  {
    "SMILES_INPUT": "Cc1ccc(S(=O)(=O)O)cc1.O=C1CCCN1c1ccc(Nc2ncc(Cl)c(NC3CC3)n2)cc1",
    "MEASURED_ATTRIBUTE": "logP",
    "REPORTED_RESULT": "1.44*"
  },
  {
    "SMILES_INPUT": "CC1(C(=O)Nc2ccc(Nc3ncc(Cl)c(NC4CC4)n3)cc2)CC1",
    "MEASURED_ATTRIBUTE": "logP",
    "REPORTED_RESULT": "1.66*"
  },
  {
    "SMILES_INPUT": "CC(=O)c1cc(Nc2ncc(Br)c(NCC3CC3)n2)ccc1O",
    "MEASURED_ATTRIBUTE": "logP",
    "REPORTED_RESULT": "1.92*"
  },
  {
    "SMILES_INPUT": "C=CCNC(=O)c1ccc(Nc2ncc(Br)c(NCC3CC3)n2)cc1",
    "MEASURED_ATTRIBUTE": "logP",
    "REPORTED_RESULT": "1.9*"
  },
  {
    "SMILES_INPUT": "CC(C)CCSc1cccc(Nc2ncc(Cl)c(NC3CC3)n2)c1.Cc1ccc(S(=O)(=O)O)cc1",
    "MEASURED_ATTRIBUTE": "logP",
    "REPORTED_RESULT": "4.24*"
  }
]

# input for lookup
Query :: # logP lookup, item CCCSc1cccc(Nc2ncc(Cl)c(NC3CC3)n2)c1
Result :: 3.33*
